Documented solubility kinetic at 1 h across a set of compounds
test: Chemi-Luminescent Nitrogen Detection (CLND) kinetic solubility assay; type: physicochemical; conditions: phosphate buffered saline, pH 7.4; kinetic aqueous solubility by CLND; read-out: Solubility
Non-standard residues stand in square brackets, D forms with d. Residues, ends and D or L forms follow the SMILES beside them. dPhe(4-Cl) = N[C@H](Cc1ccc(Cl)cc1)C(=O)O; NMeN = CN[C@@H](CC(N)=O)C(=O)O; NMeL = CN[C@@H](CC(C)C)C(=O)O; dNMeL = CN[C@H](CC(C)C)C(=O)O; NMeV = CN[C@H](C(=O)O)C(C)C; dOrn = NCCC[C@@H](N)C(=O)O

Record excerpt, results attached:
Compound	solubility kinetic at 1 h
CC(C)C[C@@H]1NC(=O)[C@H](Cc2c[nH]c3ccccc23)NC(=O)[C@@H](CCCN)NC(=O)[C@H](CC(N)=O)NC(=O)[C@H](C(C)C)NC(=O)[C@@H](C)NC1=O [Compound 6c] (cyclo(L[dA]VN[dOrn]W))	≥ 196 µg/mL
CC(C)C[C@@H]1NC(=O)[C@@H](Cc2ccc(Cl)cc2)NC(=O)[C@@H](CCCN)NC(=O)[C@H](CC(N)=O)NC(=O)[C@H](C(C)C)NC(=O)[C@@H](CC(C)C)NC1=O [Compound 14c] (cyclo(L[dL]VN[dOrn][dPhe(4-Cl)]))	≥ 218 µg/mL
CC(C)C[C@@H]1NC(=O)[C@H](Cc2c[nH]c3ccccc23)NC(=O)[C@@H](CCCN)NC(=O)[C@H](CC(N)=O)N(C)C(=O)[C@H](C(C)C)NC(=O)[C@@H](CC(C)C)N(C)C1=O [Compound 25c] (cyclo(L[dNMeL]V[NMeN][dOrn]W))	≥ 221 µg/mL
CC[C@H](C)[C@@H]1NC(=O)[C@@H](Cc2ccc(Cl)cc2)NC(=O)[C@H](CC(C)C)NC(=O)[C@H](Cc2c[nH]c3ccccc23)NC(=O)[C@@H](CCCN)NC(=O)[C@@H](CCCN)NC1=O [Compound 18c] (cyclo(I[dOrn][dOrn]WL[dPhe(4-Cl)]))	7 µg/mL
CC(C)C[C@@H]1NC(=O)[C@H](C)NC(=O)[C@@H](CCCN)NC(=O)[C@H](CC(N)=O)NC(=O)[C@H](C(C)C)NC(=O)[C@@H](CC(C)C)NC1=O [Compound 3c] (cyclo(AL[dL]VN[dOrn]))	136 µg/mL
CC(C)C[C@H]1NC(=O)[C@H](CC(C)C)N(C)C(=O)[C@H](Cc2c[nH]c3ccccc23)NC(=O)[C@@H](CCCN)NC(=O)[C@H](CC(N)=O)NC(=O)[C@H](C(C)C)N(C)C1=O [Compound 24c] (cyclo(N[dOrn]W[NMeL][dL][NMeV]))	≥ 217 µg/mL
CC[C@H](C)[C@@H]1NC(=O)[C@H](CC(C)C)NC(=O)[C@H](Cc2c[nH]c3ccccc23)NC(=O)[C@@H](CCCN)NC(=O)[C@H](CC(N)=O)NC(=O)[C@H](C(C)C)NC1=O [Compound 20c] (cyclo(IVN[dOrn]WL))	≥ 195 µg/mL

Now for another entry.
[ask] Entry CC(C)C[C@@H]1NC(=O)[C@H](Cc2c[nH]c3ccccc23)NC(=O)[C@@H](CCCN)NC(=O)[C@H](C)NC(=O)[C@H](C(C)C)NC(=O)[C@@H](CC(C)C)NC1=O [Compound 4c] (cyclo(A[dOrn]WL[dL]V)) needs its solubility kinetic at 1 h filled in; supply it.
[reply] 143 µg/mL
